target: T1, scHLA-B27-mmH (engineered HLA-B*27 ectodomain in-line fusion protein) (human (HLA-B*2705, beta-2 …)); experiment: SPR (Biacore), mAb captured, 37 C, HBST pH 7.4
T1 construct: also called soluble HLA-B*27 fusion protein
Assign t1/2 to each entry below.
Answers are plain numbers, in min.

- binder: "H4H2526P (antibody, V domains shown) VH: QVQLVESGGGVVQPGRSLRLSCAASGFTFSRFGMDWVRQAPGKGLEWVAVISYDGKNKLYADSVKGRFTISRDNSKNTLYMQMNSLRAEDTAVYYCAKEGDNWNFVGDSWGQGTLVTVSS VL: DIQMTQSPSSVSASVGDRVTITCRASQDISARLAWYQQKPGKAPKLLIYAASSLQSGVPSRFSGSGSGTDFTLTISSLEPEDFATYYCQQADSFPYTLGQGTKLEIK"
  t1/2 (min): 37
- binder: "H4H2477N2 (antibody, V domains shown) VH: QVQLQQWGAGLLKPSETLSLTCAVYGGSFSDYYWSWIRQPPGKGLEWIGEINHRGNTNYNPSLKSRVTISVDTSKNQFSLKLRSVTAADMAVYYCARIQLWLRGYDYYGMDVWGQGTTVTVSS VL: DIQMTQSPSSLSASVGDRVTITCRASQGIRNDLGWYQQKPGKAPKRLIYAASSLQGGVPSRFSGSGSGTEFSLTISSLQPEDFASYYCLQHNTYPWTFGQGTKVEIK"
  t1/2 (min): 3
- binder: "H4H2528P (antibody, V domains shown) VH: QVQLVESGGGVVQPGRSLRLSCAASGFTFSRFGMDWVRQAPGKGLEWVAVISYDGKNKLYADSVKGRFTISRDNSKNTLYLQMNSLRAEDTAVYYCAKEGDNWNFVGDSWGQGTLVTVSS VL: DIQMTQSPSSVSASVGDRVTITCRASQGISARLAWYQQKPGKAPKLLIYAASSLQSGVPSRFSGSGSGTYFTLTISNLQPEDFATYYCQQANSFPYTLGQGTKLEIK"
  t1/2 (min): 17
- binder: "H4H2524P (antibody, V domains shown) VH: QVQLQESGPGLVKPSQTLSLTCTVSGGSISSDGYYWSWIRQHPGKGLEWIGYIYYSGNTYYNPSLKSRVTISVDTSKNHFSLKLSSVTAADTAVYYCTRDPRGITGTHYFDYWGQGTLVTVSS VL: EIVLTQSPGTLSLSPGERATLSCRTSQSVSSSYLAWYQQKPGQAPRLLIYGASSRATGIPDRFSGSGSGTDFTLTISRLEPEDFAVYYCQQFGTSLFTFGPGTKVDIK"
  t1/2 (min): 2
- binder: "H4H2559P (antibody, V domains shown) VH: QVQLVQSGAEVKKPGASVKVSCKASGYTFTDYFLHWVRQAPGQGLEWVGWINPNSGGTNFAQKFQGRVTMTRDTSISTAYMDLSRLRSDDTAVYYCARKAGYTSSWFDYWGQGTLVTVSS VL: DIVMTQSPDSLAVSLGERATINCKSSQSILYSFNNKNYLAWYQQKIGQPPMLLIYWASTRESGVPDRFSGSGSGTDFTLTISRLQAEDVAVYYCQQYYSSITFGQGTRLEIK"
  t1/2 (min): 8

--- query ---
What does the record list as t1/2 for H4H2542P (antibody, V domains shown) VH: EVQLVESGGGLVQPGRSLRLSCAASGFTFDDYAMHWVRQGPGKGLEWVSGISWNGRTMDHADSVKGRFTISRDNAKNSLYLQMNSLRNDDTGVYFCAKEGIPVAGTYFHFYGMDVWGQGTTVTVSS VL: EIVMTQSPATLSVSPGERVTLSCRASQSIGNYLAWYQQKPGQAPRLLIYGTSTRATGIPARFSGSGSGTEFTLTFSSLQSEDFAVYYCQQYNHWPLTFGGGTKVEIK ? 2
